# TEST_NAME: Pharmacokinetic experiment in rats
# Type: in vivo, Sprague-Dawley rats
# SETTINGS: male, Sprague-Dawley, plasma; rat, PO 10 mg/kg; read-out: MRTINF_pred
READOUT_TYPE: MRT inf (h)
Answers are plain numbers, in h.

Here are 2 compounds together with their reported answers.
# COMPOUND, MRT inf [h]
records = [
    ("[2H]C([2H])([2H])C([2H])([2H])c1nc(C(N)=O)c(Nc2ccc(N3CCC(N4CCN(C)CC4)CC3)c(OC)c2)nc1NC1CCOCC1", 8.11),
    ("CCc1nc(C(N)=O)c(Nc2ccc(N3CCC(N4CCN(C)CC4)CC3)c(OC)c2)nc1NC1CCOCC1 [Gilteritinib, reference compound]", 7.46),
]

In the following, a different compound is considered.
Given [2H]C([2H])([2H])Oc1cc(Nc2nc(NC3CCOCC3)c(CC)nc2C(N)=O)ccc1N1CCC(N2CCN(C)CC2)CC1 , state its recorded MRT inf.
7.89

====

Consider the following compounds; for each one, report its Tmax.
# TEST_NAME: Pharmacokinetic experiment in rats
# Format: in vivo, Sprague-Dawley rats
# SETTINGS: male, Sprague-Dawley, plasma; rat, PO 10 mg/kg
State the value, then name its unit.

Below, each entry is followed by its recorded Tmax result.
# COMPOUND, VALUE_OBSERVED
measured = [
    ("[2H]C([2H])([2H])C([2H])([2H])c1nc(C(N)=O)c(Nc2ccc(N3CCC(N4CCN(C)CC4)CC3)c(OC)c2)nc1NC1CCOCC1", "4 h"),
    ("CCc1nc(C(N)=O)c(Nc2ccc(N3CCC(N4CCN(C)CC4)CC3)c(OC)c2)nc1NC1CCOCC1 [Gilteritinib, reference compound]", "8 h"),
]

Next item in the queue.
Need Tmax of [2H]C([2H])([2H])Oc1cc(Nc2nc(NC3CCOCC3)c(CC)nc2C(N)=O)ccc1N1CCC(N2CCN(C)CC2)CC1 , thanks.
5.33 h

====

# TEST_NAME: Metabolic stability in human liver microsomes
# Type: in vitro ADME
# SETTINGS: pH 7.4; human liver microsomes 0.5 mg/mL, 1 μM compound
# Description: Microsome assay: human liver microsomes: 0.5 mg/mL, Xenotech; rat liver microsomes: 0.5 mg/mL, Xenotech; coenzyme (NADPH/NADH): 1 mM, Sigma Life Science; magnesium chloride: 5 mM, 100 mM phosphate buffer (pH 7.4). […] Incubation of the samples: The stock solutions of the respective compounds were respectively diluted to 0.25 mM with an aqueous solution containing 70% acetonitrile, and used as a working solution, ready for use. […]
Please respond with rule met when measured microsomal CLint at 1 μM is strictly beneath 6 µL/min/mg, and with rule not met in all other cases.

Check out these entries, answers already filled in.
# MOLECULE, GROUP
data = [
    ("CCc1nc(C(N)=O)c(Nc2ccc(N3CCC(N4CCN(C)CC4)CC3)c(OC)c2)nc1NC1CCOCC1 [Gilteritinib, reference compound]", "rule not met"),
    ("[2H]C([2H])([2H])N1CCN(C2CCN(c3ccc(Nc4nc(NC5CCOCC5)c(CC)nc4C(N)=O)cc3OC)CC2)CC1", "rule not met"),
    ("[2H]C([2H])([2H])N1C([2H])([2H])C([2H])([2H])N(C2CCN(c3ccc(Nc4nc(NC5CCOCC5)c(CC)nc4C(N)=O)cc3OC)CC2)C([2H])([2H])C1([2H])[2H]", "rule met"),
    ("[2H]C1([2H])N(C)C([2H])([2H])C([2H])([2H])N(C2CCN(c3ccc(Nc4nc(NC5CCOCC5)c(CC)nc4C(N)=O)cc3OC)CC2)C1([2H])[2H]", "rule met"),
    ("[2H]C([2H])([2H])Oc1cc(Nc2nc(NC3CCOCC3)c(CC)nc2C(N)=O)ccc1N1CCC(N2CCN(C([2H])([2H])[2H])CC2)CC1", "rule not met"),
]

Moving on to another molecule below.
Say whether its microsomal CLint at 1 μM is strictly beneath 6 µL/min/mg. Entry: [2H]C([2H])([2H])N1CCN(C2CCN(c3ccc(Nc4nc(NC5CCOCC5)c(C([2H])([2H])C([2H])([2H])[2H])nc4C(N)=O)cc3OC)CC2)CC1
rule not met

====

# TEST_NAME: Metabolic stability in human liver microsomes
# Type: in vitro ADME
# SETTINGS: pH 7.4; human liver microsomes 0.5 mg/mL, 1 μM compound
READOUT_TYPE: half-life at 1 μM (h)
Answers are plain numbers, in h.

Example entries begin here.
# COMPOUND, half-life at 1 μM, h
rows = [
    ("[2H]C([2H])([2H])Oc1cc(Nc2nc(NC3CCOCC3)c(CC)nc2C(N)=O)ccc1N1CCC(N2CCN(C([2H])([2H])[2H])CC2)CC1", 3.33),
    ("CCc1nc(C(N)=O)c(Nc2ccc(N3CCC(N4CCN(C)CC4)CC3)c(OC)c2)nc1NC1CCOCC1 [Gilteritinib, reference compound]", 2.75),
]

Continue with the compound presented below.
Given [2H]C1([2H])N(C)C([2H])([2H])C([2H])([2H])N(C2CCN(c3ccc(Nc4nc(NC5CCOCC5)c(CC)nc4C(N)=O)cc3OC)CC2)C1([2H])[2H] , state its recorded half-life at 1 μM.
4.36

====

# TEST_NAME: Pharmacokinetic experiment in rats
# Format: in vivo, Sprague-Dawley rats
# SETTINGS: male, Sprague-Dawley, plasma; rat, IV 3 mg/kg
READOUT_TYPE: AUC(0-t) (ng·h/mL)
Numbers only, in ng·h/mL.

# return AUC(0-t) for each item in the list
1. [2H]C([2H])([2H])C([2H])([2H])c1nc(C(N)=O)c(Nc2ccc(N3CCC(N4CCN(C)CC4)CC3)c(OC)c2)nc1NC1CCOCC1
2. CCc1nc(C(N)=O)c(Nc2ccc(N3CCC(N4CCN(C)CC4)CC3)c(OC)c2)nc1NC1CCOCC1 [Gilteritinib, reference compound]
3. [2H]C([2H])([2H])Oc1cc(Nc2nc(NC3CCOCC3)c(CC)nc2C(N)=O)ccc1N1CCC(N2CCN(C)CC2)CC1

639
449
556

====

Assign AUC(0-inf) to each entry below.
# TEST_NAME: Pharmacokinetic experiment in rats
# Type: in vivo, Sprague-Dawley rats
# SETTINGS: male, Sprague-Dawley, plasma; rat, PO 10 mg/kg; read-out: AUCINF_pred
Give me the value, and tack the unit on after it.

Record excerpt, results attached:
# MOLECULE, READOUT_TYPE, VALUE_OBSERVED
records = [
    ("[2H]C([2H])([2H])Oc1cc(Nc2nc(NC3CCOCC3)c(CC)nc2C(N)=O)ccc1N1CCC(N2CCN(C)CC2)CC1", "AUC(0-inf)", "578 ng·h/mL"),
    ("[2H]C([2H])([2H])C([2H])([2H])c1nc(C(N)=O)c(Nc2ccc(N3CCC(N4CCN(C)CC4)CC3)c(OC)c2)nc1NC1CCOCC1", "AUC(0-inf)", "687 ng·h/mL"),
]

Kindly consider the entry below.
Returns the measured AUC(0-inf) for the input molecule. Input: CCc1nc(C(N)=O)c(Nc2ccc(N3CCC(N4CCN(C)CC4)CC3)c(OC)c2)nc1NC1CCOCC1 [Gilteritinib, reference compound]
435 ng·h/mL

====

# TEST_NAME: Pharmacokinetic experiment in rats
# Assay type: in vivo, Sprague-Dawley rats
# SETTINGS: male, Sprague-Dawley, plasma; rat, IV 3 mg/kg; read-out: AUCINF_pred
READOUT_TYPE: AUC(0-inf) (ng·h/mL)
Answers are plain numbers, in ng·h/mL.

# COMPOUND, AUC(0-inf) / ng·h/mL
rows = [
    ("[2H]C([2H])([2H])C([2H])([2H])c1nc(C(N)=O)c(Nc2ccc(N3CCC(N4CCN(C)CC4)CC3)c(OC)c2)nc1NC1CCOCC1", 651),
]

List AUC(0-inf) for every entry below, keeping the order given.
1. [2H]C([2H])([2H])Oc1cc(Nc2nc(NC3CCOCC3)c(CC)nc2C(N)=O)ccc1N1CCC(N2CCN(C)CC2)CC1
2. CCc1nc(C(N)=O)c(Nc2ccc(N3CCC(N4CCN(C)CC4)CC3)c(OC)c2)nc1NC1CCOCC1 [Gilteritinib, reference compound]

572
509
